Test system: Huh7 cells expressing a subgenomic RNA replicon of Con1 (genotype 1b) sequence origin
Test summary: microbe, parasite or virus in culture
Format: cell-based, HCV
Conditions used: Hepatitis C virus, Huh-7, 48 h; read-out: IC50
pIC50: −log10 of the molar value.
Measurement kind: pIC50

[[record]]
compound = "O=C1[C@H](CC[C@H](O)c2ccc(F)cc2)[C@@H](c2ccc(O)cc2)N1c1ccc(F)cc1"
result_number = 5.38

[[record]]
compound = "CC(=O)Nc1ccccc1OCCCCCOCC(=O)Nc1ccccc1 [2′,2″-(Pentamethylenedioxy)diacetanilide]"
result_number = 5.50


FYI, the data here is from patent US20080161324A1.
